Target: JAK-3 (Homo sapiens, UniProt P52333)
Sequence (P52333 1-1124): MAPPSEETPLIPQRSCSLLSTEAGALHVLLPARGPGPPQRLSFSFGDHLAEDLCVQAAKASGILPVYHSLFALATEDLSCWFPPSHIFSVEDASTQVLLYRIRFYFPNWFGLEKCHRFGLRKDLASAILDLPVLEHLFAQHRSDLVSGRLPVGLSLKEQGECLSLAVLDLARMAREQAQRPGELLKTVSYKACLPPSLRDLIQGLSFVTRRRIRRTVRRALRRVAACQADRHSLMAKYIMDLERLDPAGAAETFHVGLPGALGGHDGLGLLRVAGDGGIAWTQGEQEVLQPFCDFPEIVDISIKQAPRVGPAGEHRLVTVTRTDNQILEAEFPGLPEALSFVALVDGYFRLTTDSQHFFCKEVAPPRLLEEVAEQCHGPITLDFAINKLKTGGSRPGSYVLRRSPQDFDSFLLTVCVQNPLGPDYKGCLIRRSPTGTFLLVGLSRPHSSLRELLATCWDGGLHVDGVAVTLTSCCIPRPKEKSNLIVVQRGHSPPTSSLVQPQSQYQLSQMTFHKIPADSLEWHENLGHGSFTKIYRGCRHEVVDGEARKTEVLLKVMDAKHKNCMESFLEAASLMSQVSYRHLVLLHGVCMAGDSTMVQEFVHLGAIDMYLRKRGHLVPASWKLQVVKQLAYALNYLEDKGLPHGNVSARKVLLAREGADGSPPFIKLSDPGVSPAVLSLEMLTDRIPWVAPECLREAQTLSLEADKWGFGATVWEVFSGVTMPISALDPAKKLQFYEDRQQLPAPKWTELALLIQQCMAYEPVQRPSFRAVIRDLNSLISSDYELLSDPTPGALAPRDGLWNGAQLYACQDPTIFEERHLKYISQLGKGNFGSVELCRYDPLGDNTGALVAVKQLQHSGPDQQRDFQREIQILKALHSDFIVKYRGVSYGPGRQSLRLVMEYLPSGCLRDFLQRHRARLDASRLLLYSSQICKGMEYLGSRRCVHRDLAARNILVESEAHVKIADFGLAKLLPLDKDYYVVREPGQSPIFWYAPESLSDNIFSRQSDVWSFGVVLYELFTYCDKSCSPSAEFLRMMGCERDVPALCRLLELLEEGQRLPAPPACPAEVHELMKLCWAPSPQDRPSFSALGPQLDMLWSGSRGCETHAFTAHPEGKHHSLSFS
quantity measured: Ki

Fc1cccc(C2Nc3ccccc3-c3ccnc4[nH]cc2c34)c1F (stereo not shown) : 0.25 to 2.5 µM
c1ccc2c(c1)NC(c1ccc3c(c1)OCO3)c1c[nH]c3nccc-2c13 (stereo not shown) : 0.25 to 2.5 µM
Cc1cc(C2Nc3ccccc3-c3ccnc4[nH]cc2c34)ccc1F (stereo not shown) : > 2.5 µM
c1ccc2c(c1)NC(C1CCCCC1)c1c[nH]c3nccc-2c13 (stereo not shown) : > 2.5 µM
O=C1Nc2ccccc2-c2ccnc3[nH]cc(c23)C1c1ccc(O)c(F)c1 (stereo not shown) : ≤ 0.25 µM
O=[N+]([O-])c1ccccc1C1Nc2ccccc2-c2ccnc3[nH]cc1c23 (stereo not shown) : 0.25 to 2.5 µM
COc1ccc(C2Nc3ccccc3-c3ccnc4[nH]cc2c34)c(OC)c1 (stereo not shown) : > 2.5 µM
CS(=O)(=O)c1ccc(C2Nc3ccccc3-c3ccnc4[nH]cc2c34)cc1 (stereo not shown) : > 2.5 µM

Count: 2. Required value per item: Ki.
1. c1ccc2c(c1)NC(c1ccc3c(c1)CCO3)c1c[nH]c3nccc-2c13 (stereo not shown)
2. O=C(O)C1Nc2ccccc2-c2ccnc3[nH]cc1c23 (stereo not shown)

1. 0.25 to 2.5 µM
2. 0.25 to 2.5 µM

----------
Biological target: JAK-3 (Homo sapiens, UniProt P52333)
Sequence (P52333 1-1124): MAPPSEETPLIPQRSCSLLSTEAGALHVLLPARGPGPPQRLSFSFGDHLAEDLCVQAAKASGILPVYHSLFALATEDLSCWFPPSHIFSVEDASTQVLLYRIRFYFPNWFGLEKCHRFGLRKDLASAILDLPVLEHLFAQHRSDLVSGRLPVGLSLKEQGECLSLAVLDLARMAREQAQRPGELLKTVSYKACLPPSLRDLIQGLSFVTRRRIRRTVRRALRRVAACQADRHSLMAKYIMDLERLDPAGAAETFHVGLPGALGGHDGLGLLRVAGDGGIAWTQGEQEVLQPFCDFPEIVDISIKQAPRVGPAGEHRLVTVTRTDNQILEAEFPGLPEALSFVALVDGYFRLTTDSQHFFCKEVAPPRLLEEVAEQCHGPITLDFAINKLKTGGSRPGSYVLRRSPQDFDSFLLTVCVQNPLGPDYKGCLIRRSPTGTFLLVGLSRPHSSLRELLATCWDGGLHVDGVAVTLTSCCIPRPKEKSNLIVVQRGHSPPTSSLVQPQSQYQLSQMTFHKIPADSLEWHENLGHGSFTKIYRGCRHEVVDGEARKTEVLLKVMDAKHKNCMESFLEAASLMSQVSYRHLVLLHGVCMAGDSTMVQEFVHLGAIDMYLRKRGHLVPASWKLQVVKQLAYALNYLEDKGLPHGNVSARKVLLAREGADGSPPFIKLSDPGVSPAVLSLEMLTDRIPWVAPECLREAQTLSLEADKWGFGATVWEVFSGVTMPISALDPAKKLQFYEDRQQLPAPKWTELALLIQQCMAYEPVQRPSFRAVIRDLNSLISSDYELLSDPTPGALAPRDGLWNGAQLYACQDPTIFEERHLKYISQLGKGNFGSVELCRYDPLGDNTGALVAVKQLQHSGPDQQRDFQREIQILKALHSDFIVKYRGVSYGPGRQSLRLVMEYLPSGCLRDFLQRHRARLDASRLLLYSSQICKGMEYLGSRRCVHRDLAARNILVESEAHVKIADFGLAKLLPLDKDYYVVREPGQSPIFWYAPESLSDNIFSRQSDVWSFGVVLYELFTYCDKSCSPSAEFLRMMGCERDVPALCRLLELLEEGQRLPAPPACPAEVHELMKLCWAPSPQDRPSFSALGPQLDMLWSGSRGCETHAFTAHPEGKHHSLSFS
quantity measured: Ki

See these solved cases before continuing.
CCCOc1ccc(C2Nc3ccccc3-c3ccnc4[nH]cc2c34)cc1 (stereo not shown) [Compound 146] : ≤ 250 nM
COC(=O)C1(c2ccc([N+](=O)[O-])cc2)Nc2ccccc2-c2ccnc3[nH]cc1c23 (stereo not shown) [Compound 98] : 250 to 2500 nM
Oc1c(Br)cc(C2Nc3ccccc3-c3ccnc4[nH]cc2c34)cc1Br (stereo not shown) [Compound 78] : 250 to 2500 nM
OB(O)c1ccc(C2Nc3ccccc3-c3ccnc4[nH]cc2c34)cc1 (stereo not shown) [Compound 128] : ≤ 250 nM
c1ccc(C2Nc3ccccc3-c3ccnc4[nH]cc2c34)nc1 (stereo not shown) [Compound 37] : > 2500 nM
Clc1cccc(C2Nc3ccccc3-c3ccnc4[nH]cc2c34)c1 (stereo not shown) [Compound 40] : 250 to 2500 nM
c1ccc(COCC2Nc3ccccc3-c3ncnc4[nH]cc2c34)cc1 (stereo not shown) [Compound 2] : > 2500 nM
c1ccc2c(c1)NC(c1ccncc1)c1c[nH]c3nccc-2c13 (stereo not shown) [Compound 43] : > 2500 nM

Count: 3. Required value per item: Ki.
1. Oc1ccc(C2Nc3ccccc3-c3ccnc4[nH]cc2c34)cc1F (stereo not shown) [Compound 105]
2. CCC1Nc2ccccc2-c2ccnc3[nH]cc1c23 (stereo not shown) [Compound 14]
3. Clc1ccccc1C1Nc2ccccc2-c2ccnc3[nH]cc1c23 (stereo not shown) [Compound 17]

1: ≤ 250 nM; 2: 250 to 2500 nM; 3: 250 to 2500 nM

Count: 2. Required value per item: Ki.
1. Oc1ccc(C2Nc3ccccc3-c3ncnc4[nH]cc2c34)cc1Br (stereo not shown) [Compound 82]
2. FC(F)(F)C1Nc2ccccc2-c2ncnc3[nH]cc1c23 (stereo not shown) [Compound 4]

1. ≤ 250 nM
2. > 2500 nM

Count: 5. Required value per item: Ki.
1. COc1cc(C2Nc3ccccc3-c3ccnc4[nH]cc2c34)cc(Cl)c1O (stereo not shown) [Compound 112]
2. COC(=O)c1cc(C2Nc3ccccc3-c3ccnc4[nH]cc2c34)ccc1O (stereo not shown) [Compound 111]
3. Oc1ccc([C@H]2Nc3ccccc3-c3ccnc4[nH]cc2c34)c(Cl)c1 [Compound 62]
4. Oc1ccc(C2Nc3ccccc3-c3ncnc4[nH]cc2c34)c(Cl)c1 (stereo not shown) [Compound 55]
5. Oc1ccc(C2Nc3ccccc3-c3ncnc4[nH]cc2c34)cc1F (stereo not shown) [Compound 116]

1: ≤ 250 nM; 2: > 2500 nM; 3: ≤ 250 nM; 4: ≤ 250 nM; 5: ≤ 250 nM

Lab request: please report Ki under test system JAK-3 (Homo sapiens, UniProt P52333) for COC(=O)CC1Nc2ccccc2-c2ccnc3[nH]cc1c23 (stereo not shown) [Compound 156]
250 to 2500 nM
